The measured values listed here are drawn from patent US20250099420A1.

measurement.target: GPR139 (Homo sapiens)
Sequence (Q6DWJ6 1-353): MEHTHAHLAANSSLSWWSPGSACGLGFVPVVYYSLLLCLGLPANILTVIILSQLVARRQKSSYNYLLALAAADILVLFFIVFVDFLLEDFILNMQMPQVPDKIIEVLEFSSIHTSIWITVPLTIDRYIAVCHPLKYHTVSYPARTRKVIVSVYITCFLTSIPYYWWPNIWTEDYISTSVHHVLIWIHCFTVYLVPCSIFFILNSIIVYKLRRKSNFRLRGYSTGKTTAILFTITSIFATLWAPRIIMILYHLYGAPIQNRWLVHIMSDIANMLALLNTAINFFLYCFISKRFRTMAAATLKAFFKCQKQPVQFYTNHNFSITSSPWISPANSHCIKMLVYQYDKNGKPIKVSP
method.notes: GPR139 Agonist titration / agonist counterscreen assay (calcium detection, HEK-GPR139 cells)
Type: cell-based
Parameters: expressed in transfected cells; host or cells: HEK Aequorin cells, Maxcyte transient transfection
experimental.conditions: agonist counterscreen of the antagonists
Method: GPR activity was assessed using a calcium detection assay. […] Negative control samples were treated with DMSO. […] Intracellular calcium was measured using Calcium 5.
The label depends only on GRP139 Agonist activity Averaged Max % Response (±St. Dev.): T if it is at least 20%, F if it is smaller.

molecule	assigned.label
Cc1cc(C)cc(-n2cnc3cc(C(=O)NCc4ccccc4Cl)ccc32)c1	T
Cc1cccc(-n2cc(-c3ccccc3)nc2SCC(=O)Nc2ccccc2C)c1	F
O=C(CCCC(=O)OCC(Cl)=C(Cl)Cl)Nc1ccccc1F	F
Cc1cccc(-n2ccnc2SCC(=O)Nc2cccc(C)c2C)c1	F
Cc1ccc(Oc2ccc(OCC(=O)N3C(C)CCCC3C)cc2)cc1 (centres unmarked)	T

As a next step, examine the molecule that follows.
Query :: Tell me whether GRP139 Agonist activity Averaged Max % Response (±St. Dev.) is at least 20% here: CC1CCCC(NC(=O)c2cccc(NS(=O)(=O)c3ccc(Br)cc3)c2)C1C (centres unmarked)
Result :: F
